Cited source: patent US20250215097A1

# studyTarget: T1, cynomolgus monkey CCR8 (cynomolgus monkey, UniProt O97665 1-356 (rhesus entry))
# T1 construct: Full-length, stably expressed on CHO cells; also called cynoCCR8; CHO-cynoCCR8
# T1 sequence (O97665 other isoform, or with tags, fused parts or gaps): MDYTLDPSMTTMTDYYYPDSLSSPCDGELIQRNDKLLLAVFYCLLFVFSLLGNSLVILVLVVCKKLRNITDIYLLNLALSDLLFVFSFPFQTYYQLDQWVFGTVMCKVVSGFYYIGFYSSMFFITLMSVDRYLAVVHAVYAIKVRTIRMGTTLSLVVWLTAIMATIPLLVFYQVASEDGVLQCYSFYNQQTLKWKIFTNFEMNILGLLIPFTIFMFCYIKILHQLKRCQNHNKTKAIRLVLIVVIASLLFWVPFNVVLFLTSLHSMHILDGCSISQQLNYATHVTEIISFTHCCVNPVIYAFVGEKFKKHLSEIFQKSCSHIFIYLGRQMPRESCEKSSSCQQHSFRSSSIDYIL
# assayInfo: flow cytometry, chimeric IgG on CHO-cynoCCR8 cells
measure: EC50 (nM)
Hi! Could you send only the number? It should be in nM, unit omitted.

What does the data say about its EC50? Entry: 109F6 anti-CCR8 chimeric antibody (antibody, V domains shown) VH: QVQLVESNGRLVQPKGSLKLSCAASGFTFNAYAMNWVRQAPGKGLEWVARIRSKSNNYATYYADSVKDRFTISRDDSQSMLYLQMNNLKTEDTAMYFCVRQKFGARGYYALDFWGQGASVTVSS VL: DIVLTQSPASLAVSLGQRATISCRASKSVSTSGYSYMHWYQQKPGQPPKLLIYLASNLESGVPARFSGSGSGTDFTLNIHPVEEEDAATYYCQHSRELPPTFGGGTKLEIK 0.74

Try 87D8 anti-CCR8 chimeric antibody (antibody, V domains shown) VH: EVQLVESGGGLVQPKGSLRLSCAASGFTFNTYAMNWVRQAPGKGLEWIARIRSKSNNYATYYADSVKDRFTISRDDSQSMLYLQMNNLKTEDTAMYYCVRGKEAGAYYAMDYWGQGTSVTVSS VL: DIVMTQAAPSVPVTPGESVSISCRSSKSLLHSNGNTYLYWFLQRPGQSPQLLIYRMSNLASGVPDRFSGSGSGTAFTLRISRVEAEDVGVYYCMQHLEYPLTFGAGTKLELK next. 1.92

Try 113B3 anti-CCR8 chimeric antibody (antibody, V domains shown) VH: EVQLVESNGGLVQPKGSLKLSCAASGFTFNAYAMNWVRQAPGKGLEWVARIRSKSNNYATYYADSVKDRFTISRDDSQSMLYLQMNNLKTEDTAMYFCVRQKFGSRGYYALDFWGQGATVTVSS VL: QIVLTQSPAIMSASLGERVTMTCTASSSVSSSYLHWYQQKPGSSPKLWIYSTSNLASGVPARFSGSGSGTSYSLTISSMEAEDAATYYCHQYHRSPRTFGGGTRLEIK next. 1.99
